# System: OVCAR-8 ovarian
# method: NCI-60 one-dose screen, 48 h (100 = growth as untreated, 0 = no growth, -100 = all killed)
# experimental.context: 10 µM
The panel holds about 83,000 compounds, 20% with a hit somewhere; the sample as a whole holds those more often.
// boundary case: growth equal to -30% maps to f; strictly smaller maps to t

# molecule, qualitative.label
records = [
    ("C#CCNC(=O)CCC(=O)OC[C@]12CC[C@@H](C(=C)C)[C@@H]1C1CC[C@@H]3[C@@]4(C)CCCNC(C)(C)[C@@H]4CC[C@@]3(C)[C@]1(C)CC2 (stereo partly drawn)", "t"),
    ("Cc1ccc(CSc2nc(Cl)c(C#N)c(-c3ccc(F)cc3)n2)cc1", "f"),
    ("O=C(Nc1ccc(I)cc1F)c1cc(-c2ccc(F)cc2F)ccc1O", "f"),
    ("[2H]C([2H])([2H])Oc1ccc2ncc(C#Cc3cncc(C(=O)Nc4ccc(CN5CCN(C)CC5)c(C(F)(F)F)c4)c3)n2n1", "f"),
    ("CN1CCN(c2ccc(Nc3nc(NCCCNC(=O)c4ccc(F)cc4)c4sccc4n3)cc2)CC1", "f"),
    ("COc1cccc2nc(Nc3cccc(NC(=O)c4ccc(CN5CCCN(C)CC5)c(C(F)(F)F)c4)c3)ccc12", "t"),
    ("O=c1oc2ccc(-c3ccc(F)cc3F)cc2c(=O)n1-c1ccc(F)c(Cl)c1", "f"),
]
